As shown below, each of these sequences has a reported PBM E-score value.
- TGT: Abf1 (UniProt P14164)
- Sequence: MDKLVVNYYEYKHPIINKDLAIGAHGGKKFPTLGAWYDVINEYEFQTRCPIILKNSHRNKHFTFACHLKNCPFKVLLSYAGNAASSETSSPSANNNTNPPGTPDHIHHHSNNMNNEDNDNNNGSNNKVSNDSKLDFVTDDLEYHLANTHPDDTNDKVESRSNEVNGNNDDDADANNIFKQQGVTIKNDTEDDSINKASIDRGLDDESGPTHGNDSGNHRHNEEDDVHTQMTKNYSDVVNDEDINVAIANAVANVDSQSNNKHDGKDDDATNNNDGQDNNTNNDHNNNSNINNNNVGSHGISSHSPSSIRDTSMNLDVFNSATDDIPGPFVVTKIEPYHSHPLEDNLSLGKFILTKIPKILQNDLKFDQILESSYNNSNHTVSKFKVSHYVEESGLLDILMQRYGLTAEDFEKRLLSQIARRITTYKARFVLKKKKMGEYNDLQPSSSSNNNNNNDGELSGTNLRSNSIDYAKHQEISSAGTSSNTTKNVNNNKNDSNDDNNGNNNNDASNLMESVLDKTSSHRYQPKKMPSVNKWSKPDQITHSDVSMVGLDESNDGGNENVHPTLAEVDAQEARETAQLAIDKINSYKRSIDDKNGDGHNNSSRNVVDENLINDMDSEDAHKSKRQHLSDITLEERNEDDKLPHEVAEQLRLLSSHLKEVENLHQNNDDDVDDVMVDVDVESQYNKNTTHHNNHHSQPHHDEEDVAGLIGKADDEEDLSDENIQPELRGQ
- METHOD_NOTES: PBM E-score (8-mer binding enrichment) (E-score (-0.5 to 0.5)); higher = stronger / more preferred TF binding
- STATED_CONDITIONS: protein concentration: 200 nM; construct: GST-full length
In all, about 33,000 sequences were measured (“E-score (-0.5 to 0.5)”: median about -0.015, highest 2% from about 0.3 on). The sample holds the highest values, similar sequences and a random draw of the others, so the mix is not that of the screen.
Number, no unit, nothing else.

// known answers, use as guide
- SEQUENCE_CONTENT: "ACGTATCG"
  PBM E-score: 0.212
- SEQUENCE_CONTENT: "GTCACTAA"
  PBM E-score: 0.393

Give the reported PBM E-score for this sequence. CTCACTAC
0.203

Give the reported PBM E-score for this sequence. CACCTCGC
-0.0945

Give the reported PBM E-score for this sequence. AATTTGCC
-0.136

Give the reported PBM E-score for this sequence. GTGACAGA
0.359

Give the reported PBM E-score for this sequence. AGAGTGTG
-0.158

Give the reported PBM E-score for this sequence. GGGACATA
-0.00523

Give the reported PBM E-score for this sequence. CTCTCGTC
0.011

Give the reported PBM E-score for this sequence. AAGACAAC
0.0616

Give the reported PBM E-score for this sequence. GAACTTAC
0.0577

Give the reported PBM E-score for this sequence. CACAAAAG
-0.0552

Give the reported PBM E-score for this sequence. ATCACTAA
0.359

Give the reported PBM E-score for this sequence. CGGAGAAC
-0.184

Give the reported PBM E-score for this sequence. CTCTGTGA
-0.118
